Target: T1, FZD10 cysteine-rich domain (CRD), MYC-tagged and GPI-anchored on CHO cells (human, UniProt Q9ULW2 30-156, GPI anchor)
T1 construct: also called FZD10 CRD; CHO-myc-FZDGPI; not shown: MYC tag and GPI anchor signal
T1 sequence: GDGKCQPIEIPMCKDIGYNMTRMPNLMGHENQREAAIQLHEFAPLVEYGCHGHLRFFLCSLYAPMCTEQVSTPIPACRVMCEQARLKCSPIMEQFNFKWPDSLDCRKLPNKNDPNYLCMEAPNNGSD
Experiment: flow cytometry, CHO-CRD cells;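 further: flow cytometry of Fab binding to CHO cells overexpressing a Frizzled CRD, with binding defined as median fluorescence over twice that of CHO cells lacking any Frizzled CRD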
measured-attribute: median fluorescence
// print number alone

binder	measured-attribute	test-value
Fab-2914 (Fab, V domains shown, Fab; also called Fv-2914) VH: EVQLVESGGGLVQPGGSLRLSCAASGFNIYYSYMHWVRQAPGKGLEWVASIYPSSSSTSYADSVKGRFTISADTSKNTAYLQMNSLRAEDTAVYYCARGAMDYWGQGTLVTVSS VL: DIQMTQSPSSLSASVGDRVTITCRASQSVSSAVAWYQQKPGKAPKLLIYSASSLYSGVPSRFSGSRSGTDFTLTISSLQPEDFATYYCQQWYYGSLITFGQGTKVEIK	median fluorescence	3.72

Recorded result, Fab-2901 (Fab, V domains shown, Fab; also called Fv-2901) VH: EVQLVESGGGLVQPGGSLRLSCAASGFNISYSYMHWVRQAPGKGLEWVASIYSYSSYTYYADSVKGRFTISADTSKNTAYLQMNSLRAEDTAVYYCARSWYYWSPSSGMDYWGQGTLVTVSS VL: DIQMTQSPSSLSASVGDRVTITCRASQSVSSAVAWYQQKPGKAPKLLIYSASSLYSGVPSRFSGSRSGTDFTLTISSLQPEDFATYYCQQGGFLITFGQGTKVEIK , median fluorescence: 3.85
